- ASSAY_REMARKS: APR_HepG2_p53Act_24hr: Apredica 24-hour HepG2 Assay for p53 Activation (AID 2282913);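 also: p53 protein immunofluorescence averaged per cell in HepG2 with Hoechst nuclei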
- PARTICULARS: high-content imaging, actives raise or lower the signal
Calls of active or inactive are those of the source. The calls were made as follows: active = hit-call score of the fitted dose curve at least 0.9, where 1 is the maximum; inactive = score below 0.9.
Please state which outcome applies, choosing from YES (active), NO (inactive)

In: # fetch the recorded call for CCOCCOCCO here
Out: NO

In: # fetch the recorded call for NC(=Nc1ccccc1)Nc1ccccc1 here
Out: NO

In: # fetch the recorded call for CN(C)C(=O)NC1(c2ccccc2)CCN(CCC[C@]2(c3ccc(Cl)c(Cl)c3)CCCN(C(=O)c3ccccc3)C2)CC1 here
Out: YES

In: # fetch the recorded call for CC(C)(O)c1ccc(CNC(=O)c2cccnc2Oc2ccc(F)cc2)cc1 here
Out: NO

In: # fetch the recorded call for O=C(O)CC(O)(CC(=O)O)C(=O)O here
Out: NO

In: # fetch the recorded call for CCCCCCCCCC[N+](C)(C)[O-] here
Out: NO
